RUN_DESCRIPTION: Toxicity liver stage against HepG2, at 10uM
Format: cell-based
Set-up: test concentration 10 uM, cell line HepG2-A16-CD81EGFP
EXPERIMENTAL_CONTEXT: human, HepG2-A16-CD81EGFP cells; read-out: INHIBITION
MEASUREMENT_LABEL: cytotoxicity at 10 µM (%)
Numeric answer only, unit % assumed.

Use these answered entries as a reference point.
Briefly, cytotoxicity at 10 µM measured for O=C(NCCC(O)c1ccoc1)Nc1cccs1 (centres undefined) : -2.55

Documented cytotoxicity at 10 µM of Cn1cc(CN2CC3(CCN(C(=O)c4ccoc4)C3)C2)cn1 : -8.45

Given item C[C@@H]1CN(C(=O)c2cc(Cn3cnc4ccccc43)on2)C[C@H](C)O1 , the value recorded as its cytotoxicity at 10 µM is 1.69

Recorded result, O=C1N(CC2CC2)C(c2cncs2)NC12CCCC2 (centres undefined) , cytotoxicity at 10 µM: -3.84

Looking up CC(=O)N1N=C(c2ccccc2)OC1C(=O)N(C)Cc1ccccc1 (centres undefined) , I see its cytotoxicity at 10 µM listed as 2.37

# next molecule below
// sample Cc1nc(C)c(S(=O)(=O)NC(=O)c2ccsc2)s1 , its cytotoxicity at 10 µM was -6.85

* * *

List of cytotoxicity at 10 µM values.
RUN_DESCRIPTION: Toxicity liver stage against HepG2, at 10uM
Assay type: cell-based
Set-up: test concentration 10 uM, cell line HepG2-A16-CD81EGFP
EXPERIMENTAL_CONTEXT: human, HepG2-A16-CD81EGFP cells; read-out: INHIBITION
Provide only the numeric value, understood in %.

Some molecules with recorded cytotoxicity at 10 µM:
Looking up CNC(=O)c1ccc2c(OC)n(C)nc2c1 , I see its cytotoxicity at 10 µM listed as -2.43

Reported cytotoxicity at 10 µM for CN(Cc1cnn(C)c1)CC1CCCN1c1cccnn1 (configuration not stated) was -1.07

Next:
get_value(item= Cc1noc(C)c1CN(C)C(=O)c1ccc(O)nc1 , readout=cytotoxicity at 10 µM) returns -9.71

Query CS(=O)(=O)N1CCN(C(=O)c2cc(-c3cccs3)cs2)CC1 yields cytotoxicity at 10 µM of 1.8

Per the records, this molecule ( CCn1cc(CNCCNc2ncc(Cl)cc2Cl)cn1 ) has cytotoxicity at 10 µM equal to -4.27

Input COCCN1C[C@H]2CN(C(=O)NCc3ccccc3)CCN2C1=O . Output cytotoxicity at 10 µM: 2.08

The recorded cytotoxicity at 10 µM for CS(=O)(=O)c1nnc(NC(=O)CCc2cccs2)[nH]1 is 8.91

// field: cytotoxicity at 10 µM; key: Cc1cccc(C)c1Oc1ncccc1CNC(=O)C1(C)CCCNC1 (configuration not stated) ; value = 0.687

cytotoxicity at 10 µM measured on CC(Sc1nnc(C2CC2)n1CC(N)=O)c1ccc(F)c(Cl)c1 (configuration not stated) = 4.26

* * *

RUN_DESCRIPTION: Toxicity liver stage against HepG2, at 10uM
Format: cell-based
Parameters: test concentration 10 uM, cell line HepG2-A16-CD81EGFP
EXPERIMENTAL_CONTEXT: human, HepG2-A16-CD81EGFP cells; read-out: INHIBITION
MEASUREMENT_LABEL: cytotoxicity at 10 µM (%)
Numbers only; they are read as %.

Here's what some known entries look like.
The reported value for Cc1ccc(C)c(OCc2cc(C(=O)N(C)CC(O)CO)no2)c1 (stereo not drawn) in terms of cytotoxicity at 10 µM is 2.55

// field: cytotoxicity at 10 µM; key: CN1CCCN(C(=O)c2nc3c(s2)CCCN3CC2CC2)CC1 ; value = 10

get_value(item= Cc1cccc2nc(-c3nc4c([nH]3)CCCNC4=O)cn12 , readout=cytotoxicity at 10 µM) returns 3.67

---
Input Cc1ccc(S(=O)(=O)N2C[C@H]3C[C@H](NC(=O)c4cc(C)no4)[C@H]3C2)cc1 . Output cytotoxicity at 10 µM: -11.2

Data point: O=C(CCCc1cn[nH]c1)N1C[C@@H](CN2CCCC2)C[C@H](CO)C1 ; cytotoxicity at 10 µM = -8.96

Entry under test: OCCN1CC2(CCN(c3ccccc3)C2)C1 . Its cytotoxicity at 10 µM was 0.234

Documented cytotoxicity at 10 µM of O=C(CC1CCN(CCc2ccccc2)CC1)N1CCCOCC1 : -2.38

Value of cytotoxicity at 10 µM reported for the molecule CN(C)c1ccc(C(=O)Nc2cnn(Cc3ccccn3)c2)cc1 is -8.36

* * *

RUN_DESCRIPTION: Toxicity liver stage against HepG2, at 10uM
Assay type: cell-based
Parameters: test concentration 10 uM, cell line HepG2-A16-CD81EGFP
EXPERIMENTAL_CONTEXT: human, HepG2-A16-CD81EGFP cells; read-out: INHIBITION
MEASUREMENT_LABEL: cytotoxicity at 10 µM (%)
Number only, in %; omit the unit.

Entry COc1c(CNCC(c2cccc(F)c2)N(C)C)c(C(C)C)nn1C (stereo not given) ; cytotoxicity at 10 µM = -3.27

Documented cytotoxicity at 10 µM of Cc1cccc(C)c1OCC(C)Nc1nc(N)nc2c1CCNC2 (stereo not given) : 5.75

// field: cytotoxicity at 10 µM; key: CCN1CC2(CC1=O)CN(Cc1ccccn1)CCN(C(C)=O)C2 (stereo not given) ; value = -1.07

# cytotoxicity at 10 µM (molecule: Cc1ncc(C(=O)NC2CCc3nccn3C2)c(C(C)C)n1 (stereo not given) ) is -2.31

Consider the additional molecule presented here.
The molecule listed as O=c1c(S(=O)(=O)N2CCCCC2)cccn1Cc1ccccc1Cl has a reported cytotoxicity at 10 µM of 10.6

* * *

RUN_DESCRIPTION: Toxicity liver stage against HepG2, at 10uM
Format: cell-based
Design: test concentration 10 uM, cell line HepG2-A16-CD81EGFP
EXPERIMENTAL_CONTEXT: human, HepG2-A16-CD81EGFP cells; read-out: INHIBITION
MEASUREMENT_LABEL: cytotoxicity at 10 µM (%)
Answer format: numeric, % implied, no suffix.

Known cytotoxicity at 10 µM results, listed for orientation:
The reported cytotoxicity at 10 µM of the compound COc1ccc(CN2CCCCC2c2n[nH]cc2-c2cc(C)no2)cc1 (centres undefined) was 20.8

Please fill in: cytotoxicity at 10 µM reported for CN(Cc1ccco1)C(=O)Nc1ccc(=O)n(C)c1 = -43.1

For reference, reported cytotoxicity at 10 µM for CCc1nnc(CN(C)c2nccc(CCC(F)(F)F)n2)o1 stands at 7.4

Record CN(C(=O)C1CC(=O)N(CCc2ccccc2)C1)c1nccs1 (centres undefined) . Reported cytotoxicity at 10 µM: 9.89

cytotoxicity at 10 µM for O=C(O)c1cc(S(=O)(=O)N2CCOc3ccccc32)cc(Cl)c1Cl is -4.36

Per the record, COc1ccc2cc(C(=O)N3CC[C@H](CO)[C@H](O)C3)n(C)c2c1 has cytotoxicity at 10 µM of -7.03

Entry CC(NC(=O)NCc1ccc(Cl)cc1)c1ccccn1 (centres undefined) ; cytotoxicity at 10 µM = 3.42

Data point: CCO[C@@H]1CCN(C(=O)c2cnc(C)cn2)[C@@H]1Cc1cnn(C)c1 ; cytotoxicity at 10 µM = -72.7

Could you now look at the following compound, please?
Consider c1cncc(C2COC3(CCN(CC4CC4)CC3)C2)c1 (centres undefined) . Its measured cytotoxicity at 10 µM is -14.9

* * *

RUN_DESCRIPTION: Toxicity liver stage against HepG2, at 10uM
Type: cell-based
Design: test concentration 10 uM, cell line HepG2-A16-CD81EGFP
EXPERIMENTAL_CONTEXT: human, HepG2-A16-CD81EGFP cells; read-out: INHIBITION
// reported cytotoxicity at 10 µM per item
Kindly provide the numeric value in % only, without the unit symbol.

Record excerpt, results attached:
// recorded cytotoxicity at 10 µM for N#Cc1cccc(N2CC3(CCN(C(=O)c4cccnc4)C3)CC2=O)c1 (stereo not drawn) : 0.925

Item: O=C(c1cc(C2CCCC2)no1)N1CC(O)C1 | cytotoxicity at 10 µM: -1.57

Others:
So, O=C1CN(C(=O)c2cccc(C(F)(F)F)c2)CC(O)CN1CC1CC1 (stereo not drawn) ? Its cytotoxicity at 10 µM was -4.65

* * *

RUN_DESCRIPTION: Toxicity liver stage against HepG2, at 10uM
Format: cell-based
Parameters: test concentration 10 uM, cell line HepG2-A16-CD81EGFP
EXPERIMENTAL_CONTEXT: human, HepG2-A16-CD81EGFP cells; read-out: INHIBITION
MEASUREMENT_LABEL: cytotoxicity at 10 µM (%)
Quick note: give the figure in %, leave out the unit.

The value of cytotoxicity at 10 µM measured for the compound Cc1cc(C2CCC2)nc(NCC(C)(C)N2CCCC2)n1 turned out to be -0.21

Lab book: cytotoxicity at 10 µM of CC(C)c1nc(C2CCCN2CCS(C)(=O)=O)no1 (centres undefined) noted as 6.51

New cases:
Value of cytotoxicity at 10 µM reported for the compound O=C(NCc1nc(-c2ncccn2)no1)c1ccc(C2CCCO2)s1 (centres undefined) is 0.774
